Entries annotated with measured growth inhibition
# assay-notes: NCI Yeast Anticancer Drug Screen. Data for the mec2-1 strain (AID 157)
# measurement-conditions: S. cerevisiae mec2-1 strain, at 50.0 µM (retest, dose inferred, filed as 5.0), stronger effect = higher value
Compounds without any hit were thinned out: in the full panel of roughly 79,000, 15% have a hit.
property-name: growth inhibition (%)

1) CNC(=O)OCc1c(COC(=O)NC)c(-c2ccc(Cl)cc2)n2c1CCC2 | 6
2) CN(C)C=NC1CCC(C(C)(C)C)CC1 (stereo not drawn) | 99
3) COc1cccc2c1C(=O)c1c(O)c3c(c(O)c1C2=O)CC(O)(C(O)CO)CC3OC1CC(N2CCOCC2)C(O)C(C)O1 (stereo not drawn) | 99
4) CN1CCN(C(=O)/C=C/C(=O)c2ccccc2)CC1 | -3
5) O=[N+]([O-])c1cccc2nc3ccccc3c(NCCC[N+]3([O-])CCCCC3)c12 | 98
6) CN(C)CCOC1(Cc2ccc(Cl)cc2Cl)CCC(C(C)(C)C)CC1 (stereo not drawn) | 100
7) NC(=O)C(=O)NNc1ccccc1 | 4
8) O=C(NNc1ccccc1)c1ccc(Cl)c(Cl)c1 | 3
9) c1ccc(Cc2cc(-c3ccccc3)n[nH]2)cc1 | -13
10) C=C1CCC(O)C/C1=C/C=C1\CCCC2(C)C1CCC2C(C)CCCC(C)C (stereo not drawn) | 94
11) Cc1c(-c2ccccn2)ccc2ccccc12 | 15
12) O/N=C\c1c(O)ccc2ccccc12 | 20
13) CCOC(=O)C(Br)C(Br)c1ccccc1Cl (stereo not drawn) | 100
14) Cc1cc2c(cc1C)[n+]([O-])c(-c1nc3ccccc3s1)c(N)[n+]2[O-] | 79
15) CC(=O)Nc1ccc2c(c1)-c1ccccc1C2=O | 15
16) O=C(CC(=O)n1nc(-c2ccccc2)c(N=Nc2ccc(Cl)cc2)c1-c1ccccc1)Nc1cccc(Cl)c1 | -19
17) Cc1cc(C)nc(NS(=O)(=O)c2ccc(Nc3c4ccccc4nc4c(C(=O)NCCO)cccc34)cc2)n1 | 6
18) NNC(=O)CCc1cc2ccccc2c2ccccc12 | 99
19) CCCCNC1CCC2(SCCS2)c2[nH]c3ccccc3c21 (stereo not drawn) | -14
20) CC1=NOC(=O)/C1=C/c1ccc2c(c1)OCO2 | 83
21) COC(=O)CC1CCc2c(ccc3ccccc23)C1(C)C(=O)OC (stereo not drawn) | 28
22) c1ccc(CCN2CCc3ccccc3C2)cc1 | 1
23) O=C1N=C2SC=C(NC(=S)Nc3ccccc3)N2NC12c1ccccc1-c1ccccc12 | 8
